read-out: E-selectin (Homo sapiens) (UniProt P16581); assay: BSK_SAg_Eselectin: BioMAP Diversity Plus: SAg Assay for Eselectin Biomarker Activity (AID 2283091); details: primary human HUVEC with PBMC; actives raise or lower the signal
Sequence (P16581 whole entry, looked up): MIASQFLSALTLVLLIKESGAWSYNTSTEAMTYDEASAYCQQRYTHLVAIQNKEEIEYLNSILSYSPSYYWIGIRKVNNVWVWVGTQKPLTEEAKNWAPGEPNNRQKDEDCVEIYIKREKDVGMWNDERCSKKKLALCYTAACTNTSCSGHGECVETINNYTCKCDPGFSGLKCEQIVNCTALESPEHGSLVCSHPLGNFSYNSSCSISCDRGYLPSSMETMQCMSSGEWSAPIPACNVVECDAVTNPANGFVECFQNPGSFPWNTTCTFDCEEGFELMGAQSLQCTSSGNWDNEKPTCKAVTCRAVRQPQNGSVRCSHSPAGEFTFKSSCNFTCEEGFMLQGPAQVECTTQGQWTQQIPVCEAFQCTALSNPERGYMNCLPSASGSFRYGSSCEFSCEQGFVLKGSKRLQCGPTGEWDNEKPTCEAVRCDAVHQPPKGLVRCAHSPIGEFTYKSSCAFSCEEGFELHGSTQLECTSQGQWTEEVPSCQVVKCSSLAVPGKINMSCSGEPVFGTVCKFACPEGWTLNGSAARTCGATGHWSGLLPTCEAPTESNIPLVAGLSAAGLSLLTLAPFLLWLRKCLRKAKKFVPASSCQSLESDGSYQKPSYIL
Activity calls are given as the source filed them. How the source made its calls: active means hit-call score of the fitted dose curve at least 0.9, where 1 is the maximum; inactive means score below 0.9.

{"molecule": "Clc1ccccc1-c1nnc(-c2ccccc2Cl)nn1", "AC50": "inactive"}
{"molecule": "O=[N+]([O-])c1c(Cl)c(Cl)c(Cl)c(Cl)c1Cl", "AC50": "20 µM (active)"}
{"molecule": "COC(=O)c1ccccc1CS(=O)(=O)NC(=O)Nc1nc(OC)cc(OC)n1", "AC50": "inactive"}
{"molecule": "CCC(C)(NC(=O)c1cc(Cl)c(C)c(Cl)c1)C(=O)CCl (configuration not stated)", "AC50": "7.45 µM (active)"}
{"molecule": "Cc1cc(C)nc(NC(=O)NS(=O)(=O)c2ccccc2C(=O)OC2COC2)n1", "AC50": "inactive"}
{"molecule": "Cc1[nH]c(=O)n(C(C)(C)C)c(=O)c1Cl", "AC50": "20 µM (active)"}
{"molecule": "CCN(CC)C(=O)SCc1ccc(Cl)cc1", "AC50": "inactive"}
{"molecule": "O=C(NC(=O)c1c(F)cccc1F)Nc1ccc(OC(F)(F)C(F)OC(F)(F)F)c(Cl)c1 (configuration not stated)", "AC50": "9.18 µM (active)"}
{"molecule": "CCCN(CCOc1c(Cl)cc(Cl)cc1Cl)C(=O)n1ccnc1", "AC50": "20.6 µM (active)"}
{"molecule": "ClC1C(Cl)C(Cl)C(Cl)C(Cl)C1Cl (configuration not stated)", "AC50": "inactive"}
{"molecule": "COP(=O)(OC)OC=C(Cl)Cl", "AC50": "28.9 µM (active)"}
{"molecule": "COP(=S)(OC)Oc1ccc([N+](=O)[O-])cc1", "AC50": "30.9 µM (active)"}

// data source = PubChem BioAssay (EPA / NIEHS)
